molecular target: M4 muscarinic receptor (Homo sapiens, UniProt P08173); construct: expressed in transfected cells; host or cells: CHO cells (M4-CHO, under puromycin, zeocin and blasticidin selection); assay: Functional mobilization of intracellular calcium (FLIPR, Fluo-3), M4-CHO cells; assay type: cell-based; settings: compound nos. 1-454; 100% efficacy is the maximum response obtained with the Carbachol control; read-out: M4 Efficacy
Sequence (P08173 whole entry): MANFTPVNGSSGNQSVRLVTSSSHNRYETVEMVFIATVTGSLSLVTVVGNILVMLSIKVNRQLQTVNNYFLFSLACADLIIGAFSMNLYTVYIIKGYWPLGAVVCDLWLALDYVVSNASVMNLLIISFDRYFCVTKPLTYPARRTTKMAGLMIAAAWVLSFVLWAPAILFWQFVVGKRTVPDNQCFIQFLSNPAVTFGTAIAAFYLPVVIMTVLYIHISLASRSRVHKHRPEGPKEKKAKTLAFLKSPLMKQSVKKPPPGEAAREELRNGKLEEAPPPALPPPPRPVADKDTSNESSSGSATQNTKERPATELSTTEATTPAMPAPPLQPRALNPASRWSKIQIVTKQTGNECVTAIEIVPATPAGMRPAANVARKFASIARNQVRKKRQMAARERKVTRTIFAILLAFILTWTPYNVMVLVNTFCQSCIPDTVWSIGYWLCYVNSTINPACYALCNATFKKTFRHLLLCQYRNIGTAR
Recorded measurements of Emax, one per entry

{"molecule": "CCOC(=O)N1CCC(N2CCC3(CC2)CN(C(=O)N2CCCC2)c2ccc(F)cc23)CC1", "Emax": "< 55%"}
{"molecule": "Cc1ccc2c(c1)C1(CCN(C3CC4CCC3C4)CC1)CN2C(=O)c1cc(C)on1 (stereo not drawn)", "Emax": "< 55%"}
{"molecule": "CCOC(=O)N1CCC(CN2CCC3(CC2)C[C@H](NC(C)=O)c2ccccc23)CC1", "Emax": "55 to 70%"}
{"molecule": "CCNC(=O)N1CC2(CCN(C3CC4CCC3C4)CC2)c2cc(C)ccc21 (stereo not drawn)", "Emax": "< 55%"}
{"molecule": "C#CCCOC(=O)N1CCC(N2CCC3(CC2)CN(C(C)=O)c2ccc(F)cc23)CC1", "Emax": "55 to 70%"}
{"molecule": "CCOC(=O)N1CCC(N2CCC3(CC2)CN(C(C)=O)c2ccc(-c4ccccc4)cc23)CC1", "Emax": "< 55%"}
{"molecule": "CC(=O)N1CC2(CCN(C3CCN(C(=O)O[C@@H]4CCOC4)CC3)CC2)c2cc(F)ccc21", "Emax": "< 55%"}
{"molecule": "CC#CCOC(=O)N1CCC(N2CCC3(CC2)CN(C(C)=O)c2ccc(F)cc23)CC1", "Emax": "55 to 70%"}
{"molecule": "CN(C)C(=O)N1CC2(CCN(C3CC4CCC(C3)N4C(=O)OCCF)CC2)c2cc(F)ccc21 (stereo not drawn)", "Emax": "55 to 70%"}
{"molecule": "COCCOC(=O)N1C2CCC1CC(N1CCC3(CCc4ccccc43)CC1)C2 (stereo not drawn)", "Emax": "< 55%"}
{"molecule": "CN(C)C(=O)N1CC2(CCN(C3CC4CCC(C3)N4C(=O)O[C@@H]3CCOC3)CC2)c2cc(F)ccc21 (stereo partly drawn)", "Emax": "55 to 70%"}
{"molecule": "COC(=O)N1C2CCC1CC(N1CCC3(CC1)CN(C(=O)c1cc(C)n(C)n1)c1ccc(F)cc13)C2 (stereo not drawn)", "Emax": "> 70%"}

* * *

Biological target: M1 muscarinic receptor (Homo sapiens, UniProt P11229)
Construct: expressed in transfected cells; host or cells: CHO cells (M1-CHO, under zeocin and G418 selection)
Assay: Functional mobilization of intracellular calcium (FLIPR, Fluo-3), M1-CHO cells
Type: cell-based
Conditions: compound nos. 1-454; 100% efficacy is the maximum response obtained with the Carbachol control; read-out: M1 Efficacy
Description: CHO cells expressing muscarinic receptors (M1 to M5) are grown as monolayers in tissue culture flasks at 37° C. in a humidified atmosphere containing 5% CO2 and passaged every 3-5 days. […] The potency, efficacy and selectivity of the muscarinic compounds were evaluated by screening the compound activity across the whole family (M1 to M5 cells). […]

{"molecule": "CC(C)OC(=O)N1C2CCC1CC(N1CCC3(CC1)CN(C(=O)N(C)C)c1ccc(F)cc13)C2 (centres unmarked) [compound 108]", "Emax": "65 to 85%"}
{"molecule": "CCOC(=O)N1CCC(N2CCC3(CC2)CN(C(C)=O)c2ccc(-c4ccc(NC(C)=O)cc4)cc23)CC1 [compound 10]", "Emax": "65 to 85%"}
{"molecule": "CCOC(=O)N(C)[C@H]1CC2(CCN(C[C@H]3C[C@H]4CC[C@H]3C4)CC2)c2ccccc21 [compound 347]", "Emax": "65 to 85%"}
{"molecule": "O=C(OC1CCC1)N1C2CCC1CC(N1CCC3(CCc4ccccc43)CC1)C2 (centres unmarked) [compound 68]", "Emax": "< 65%"}
{"molecule": "CCCOC(=O)N1CCC(N2CCC3(CC2)CN(C(=O)N(C)C)c2ccc(F)cc23)CC1 [compound 91]", "Emax": "65 to 85%"}
{"molecule": "CC(=O)N1CC2(CCN(C3CCCCCC3)CC2)c2cc(F)ccc21 [compound 210]", "Emax": "65 to 85%"}
{"molecule": "CCOC(=O)N1CCC(N2CCC3(CC2)CN(C(=O)OCC)c2ccc(F)cc23)CC1 [compound 427]", "Emax": "< 65%"}
{"molecule": "CN(C)C(=O)N1CC2(CCN(C3CCN(c4ncccn4)CC3)CC2)c2cc(F)ccc21 [compound 445]", "Emax": "65 to 85%"}
{"molecule": "Cc1ccc2c(c1)C1(CCN(C3CC4CCC3C4)CC1)CN2C(=O)c1ccno1 (centres unmarked) [compound 292]", "Emax": "65 to 85%"}
{"molecule": "CCOC(=O)N1C2CCC1CC(N1CCC3(CC1)CN(C(C)=O)c1ccc(F)cc13)C2 (centres unmarked) [compound 371]", "Emax": "65 to 85%"}
{"molecule": "CC(=O)N1CC2(CCN(C3CCN(C(=O)OC4CCC4)CC3)CC2)c2cc(F)ccc21 [compound 140]", "Emax": "> 85%"}
{"molecule": "Clc1ccc2c(c1)C1(CCO2)CCN(C2CCOCC2)CC1 [compound 178]", "Emax": "> 85%"}
{"molecule": "COC(=O)N1C2CCC1CC(N1CCC3(CC1)CN(S(C)(=O)=O)c1ccc(F)cc13)C2 (centres unmarked) [compound 383]", "Emax": "65 to 85%"}
{"molecule": "COCCOC(=O)N1CC2(CCN(C3CC4CCC(C3)N4C(=O)OC3CCC3)CC2)c2cc(F)ccc21 (centres unmarked) [compound 195]", "Emax": "< 65%"}

* * *

target: M1 muscarinic receptor (Homo sapiens); construct: expressed in transfected cells; host or cells: CHO cells (M1-CHO, under zeocin and G418 selection); assay: Functional mobilization of intracellular calcium (FLIPR, Fluo-3), M1-CHO cells; format: cell-based; settings: compound nos. 455-509; 100% efficacy is the maximum response obtained with the Carbachol control; read-out: M1 Efficacy
This listing pairs molecules with measured Emax.

{"molecule": "CC(=O)N1CC2(CCN(C3CCN(c4cncc(C5CC5)n4)CC3)CC2)c2ccccc21 [compound 503]", "Emax": "< 25%"}
{"molecule": "CC(=O)N1CCC2(CCN(C3CCN(c4cnccn4)CC3)CC2)c2ccccc21 [compound 463]", "Emax": "> 100%"}
{"molecule": "CC(=O)N1CC2(CCN(C3CCN(c4nc(C)cs4)CC3)CC2)c2ccccc21 [compound 475]", "Emax": "25 to 100%"}
{"molecule": "CN(C)C(=O)N1CC2(CCN(C3CCN(c4cnccn4)CC3)CC2)c2ccccc21 [compound 464]", "Emax": "> 100%"}
{"molecule": "Cc1nsc(N2CCC(N3CCC4(CCN(C(=O)N(C)C)c5ccccc54)CC3)CC2)n1 [compound 474]", "Emax": "> 100%"}
{"molecule": "CN(C)C(=O)N1CC2(CCN(C3CCN(c4ncnc5ccsc45)CC3)CC2)c2cc(F)ccc21 [compound 496]", "Emax": "> 100%"}
{"molecule": "CC(=O)N1CCC2(CCN(C3CCN(c4cnc5ccccc5n4)CC3)CC2)c2ccccc21 [compound 456]", "Emax": "> 100%"}

* * *

Listed compounds paired with reported Emax
Molecular target: M1 muscarinic receptor (Homo sapiens, UniProt P11229)
Construct: expressed in transfected cells; host or cells: CHO cells (M1-CHO, under zeocin and G418 selection)
Sequence (P11229 1-460): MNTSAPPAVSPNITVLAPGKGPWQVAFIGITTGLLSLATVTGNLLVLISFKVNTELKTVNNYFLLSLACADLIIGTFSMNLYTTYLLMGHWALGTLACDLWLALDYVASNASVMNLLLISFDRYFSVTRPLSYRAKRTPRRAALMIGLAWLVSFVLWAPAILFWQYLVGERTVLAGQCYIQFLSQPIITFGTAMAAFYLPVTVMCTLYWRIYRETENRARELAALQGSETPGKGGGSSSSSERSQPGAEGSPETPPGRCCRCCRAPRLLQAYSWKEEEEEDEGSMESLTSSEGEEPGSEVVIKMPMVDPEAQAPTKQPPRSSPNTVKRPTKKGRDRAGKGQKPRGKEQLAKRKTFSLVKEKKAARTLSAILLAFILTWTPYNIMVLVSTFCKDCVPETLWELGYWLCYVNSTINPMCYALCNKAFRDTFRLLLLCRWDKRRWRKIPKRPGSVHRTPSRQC
Experiment: Functional mobilization of intracellular calcium (FLIPR, Fluo-3), M1-CHO cells
Type: cell-based
Conditions: compound nos. 1-454; 100% efficacy is the maximum response obtained with the Carbachol control; read-out: M1 Efficacy
reported.property: Emax

{"compound": "CCOC(=O)N1CCC(N2CCC3(CC2)CN(C(=O)O[C@H]2CCOC2)c2ccc(F)cc23)CC1 [compound 428]", "reported.property": "Emax", "measured.result": "< 65%"}
{"compound": "COCCOC(=O)N1CCC(N2CCC3(CC2)CN(C(=O)N(C)C)c2ccc(F)cc23)CC1 [compound 265]", "reported.property": "Emax", "measured.result": "< 65%"}
{"compound": "CCOC(=O)N1CCC(N2CCC3(CC2)CN(C(=O)OC)c2ccc(F)cc23)CC1 [compound 173]", "reported.property": "Emax", "measured.result": "65 to 85%"}
{"compound": "CC(=O)N1CC2(CCN(C3CCC(C(F)(F)F)CC3)CC2)c2cc(F)ccc21 (stereo not drawn) [compound 236]", "reported.property": "Emax", "measured.result": "65 to 85%"}
{"compound": "Fc1ccc2c(c1)C1(CCN(C3CCCCC3)CC1)CN2 [compound 325]", "reported.property": "Emax", "measured.result": "65 to 85%"}
{"compound": "CCOC(=O)N1CCC(N2CCC3(CC2)CN(C(C)=O)c2ccc(-c4ccccc4OC)cc23)CC1 [compound 150]", "reported.property": "Emax", "measured.result": "65 to 85%"}
{"compound": "C=Cc1ccc2c(c1)C1(CCN(C3CCN(C(=O)OCC)CC3)CC1)CN2C(C)=O [compound 11]", "reported.property": "Emax", "measured.result": "< 65%"}
{"compound": "CCOC(=O)N1C2CCC1CC(N1CCC3(CC1)CN(C(=O)Nc1ccc(F)cc1)c1ccc(F)cc13)C2 (stereo not drawn) [compound 197]", "reported.property": "Emax", "measured.result": "< 65%"}
{"compound": "C#CCOC(=O)N1CCC(CN2CCC3(CC2)CN(C(C)=O)c2ccc(F)cc23)CC1 [compound 316]", "reported.property": "Emax", "measured.result": "< 65%"}
{"compound": "CC(=O)N1CC2(CCN(C3CCN(C(=O)O[C@@H]4CCOC4)CC3)CC2)c2cc(F)ccc21 [compound 424]", "reported.property": "Emax", "measured.result": "< 65%"}
{"compound": "CCOC(=O)N1CCC(N2CCC3(CC2)CN(C(C)=O)c2ccc(-c4cccnc4)cc23)CC1 [compound 234]", "reported.property": "Emax", "measured.result": "65 to 85%"}
{"compound": "CCON=C1CCC(N2CCC3(CC2)CN(C(C)=O)c2ccc(F)cc23)CC1 (stereo not drawn) [compound 86]", "reported.property": "Emax", "measured.result": "65 to 85%"}
